Reported values of Activity on glucose uptake for individual entries
Tested on: Rat L6 cells
experiment summary: Enhancement activity on glucose uptake (3H-2-deoxyglucose) in rat L6 cells
Type: cell-based
experimental context: 2 hr, 5 mM 3H-2-deoxyglucose, initial 3 min
value type: Activity on glucose uptake (pmol/mg protein/min)

> print(dat)
                                   compound          unit.symbol  test.result
1         CC(C)CCOc1ccc(C=C2SC(=S)NC2=O)cc1  pmol/mg protein/min         98.4
2  O=C1NC(=S)SC1c1ccccc1 (stereo not shown)  pmol/mg protein/min         76.8
3                       Cc1cc(N)c2ccccc2c1O  pmol/mg protein/min         67.5
4                    CC1=CC(=O)c2ccccc2C1=O  pmol/mg protein/min         60.9
